The entries below come with measured protein stability index values attached.
B1: FADS1 (parent)
chain: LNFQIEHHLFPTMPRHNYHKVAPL

Variants of: B1
methodSummary: protein stability index of a GFP-peptide fusion (GPS, HEK-293T) (PSI 1-6); higher = more stable;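 note: lentivirally expressed fusions sorted by FACS into six bins by GFP to DsRed ratio, PSI derived from sequencing read proportions per bin multiplied by bin number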
assayConditions: c terminus: a fixed tail appended

| chainSequence | protein stability index |
| --- | --- |
| LNFQIEHHLFPTMPRHNYHKVSPL [A22S] | 2.91 |
| LNFQIEHHLGPTMPRHNYHKVAPL [F10G] | 2.73 |
| LNFQIEHHLFPTMPRHNYHHVAPL [K20H] | 1.46 |
| LNFQIEHHLFPTMPRHNYHKVYPL [A22Y] | 2.21 |
| LNFQIEHWLFPTMPRHNYHKVAPL [H8W] | 2.58 |
| LNCQIEHHLFPTMPRHNYHKVAPL [F3C] | 2.22 |
| LNFQIEHHLFPTMPRHNYVKVAPL [H19V] | 2.8 |
| LDFQIEHHLFPTMPRHNYHKVAPL [N2D] | 2.91 |
| LNFQIEHHLFGTMPRHNYHKVAPL [P11G] | 1.9 |
| LNFQIEHHLFPTMPRHNYHKVAQL [P23Q] | 2.63 |
| LNFQIEHHLFPTMPRHNYHKTAPL [V21T] | 2.23 |
| LNFQIEHHLFPTMPRHNYRKVAPL [H19R] | 1.88 |
| VNFQIEHHLFPTMPRHNYHKVAPL [L1V] | 2.18 |
| LNFQIEHHLFPTMPRHNYHTVAPL [K20T] | 1.79 |
| LNFQIEHHLFPTMPRHNYHKMAPL [V21M] | 2.5 |
| RNFQIEHHLFPTMPRHNYHKVAPL [L1R] | 2.48 |
| LNFQIEHTLFPTMPRHNYHKVAPL [H8T] | 2.26 |
| LNFQIEHHLFPTMPRHNYEKVAPL [H19E] | 2.25 |
| LNFQIEHHLFPTMPWHNYHKVAPL [R15W] | 2.99 |
| LNFQIEHHLFPTMCRHNYHKVAPL [P14C] | 3.64 |
| PNFQIEHHLFPTMPRHNYHKVAPL [L1P] | 2.26 |
| LNFQCEHHLFPTMPRHNYHKVAPL [I5C] | 2.33 |
| LNFQIEHHLFPTMPIHNYHKVAPL [R15I] | 2.88 |
| LNFQIEHHLFPTMPRHNYHKPAPL [V21P] | 2.39 |
| LNFQREHHLFPTMPRHNYHKVAPL [I5R] | 2.27 |
| LNFQIEHHLFPTMPRHNYHKVAPW [L24W] | 2.03 |
| LNFQIEHHLFPDMPRHNYHKVAPL [T12D] | 1.98 |
| LNFQIEHHLFPTMPRHNYHKKAPL [V21K] | 1.83 |
| LNFQIEHHLSPTMPRHNYHKVAPL [F10S] | 1.66 |
| LNFQIEHHWFPTMPRHNYHKVAPL [L9W] | 3.23 |

Data origin, for the record: the supplement of paper PMC10567573
